Assign MFI to each entry below.
- study.target: T1, human EpCAM (epithelial cell adhesion/activating molecule) (human, UniProt P16422 24-314)
- T1 construct: also called hEpCAM; CHO/EpCAM
- T1 sequence: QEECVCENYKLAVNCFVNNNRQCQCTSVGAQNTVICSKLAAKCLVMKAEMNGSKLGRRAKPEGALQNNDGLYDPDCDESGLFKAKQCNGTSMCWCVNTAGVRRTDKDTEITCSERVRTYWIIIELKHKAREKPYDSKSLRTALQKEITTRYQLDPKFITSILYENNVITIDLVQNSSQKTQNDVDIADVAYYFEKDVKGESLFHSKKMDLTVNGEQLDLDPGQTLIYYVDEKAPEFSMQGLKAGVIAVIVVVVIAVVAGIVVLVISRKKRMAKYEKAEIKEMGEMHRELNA
- assay.method.text: flow cytometry, CHO/EpCAM cells, 0.1 µg/ml antibody
One number for each entry, in MFI.

binder	assay.metric	result.number
murine monoclonal antibody 6D11 (antibody, mouse IgG1, V domains shown, Mouse IgG1, kappa, from hybridoma; also called m338-6D11.8) VH: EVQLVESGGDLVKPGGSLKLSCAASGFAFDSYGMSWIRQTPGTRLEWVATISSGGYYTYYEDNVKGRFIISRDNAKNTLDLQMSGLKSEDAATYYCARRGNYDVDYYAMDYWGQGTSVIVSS VL: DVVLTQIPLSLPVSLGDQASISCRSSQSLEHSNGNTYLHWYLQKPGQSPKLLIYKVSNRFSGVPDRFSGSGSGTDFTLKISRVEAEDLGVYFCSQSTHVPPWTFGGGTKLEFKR	MFI	1350
murine monoclonal antibody 2D11 (antibody, mouse IgG1, V domains shown, Mouse IgG1, kappa, from hybridoma; also called m322-2D11.19) VH: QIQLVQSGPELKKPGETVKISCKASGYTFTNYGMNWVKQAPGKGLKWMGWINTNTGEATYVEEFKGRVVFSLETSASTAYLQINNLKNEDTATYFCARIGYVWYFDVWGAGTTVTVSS VL: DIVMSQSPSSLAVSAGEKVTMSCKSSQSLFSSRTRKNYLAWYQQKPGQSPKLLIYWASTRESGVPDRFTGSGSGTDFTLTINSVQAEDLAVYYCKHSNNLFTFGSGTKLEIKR	MFI	3720
murine monoclonal antibody 12H8 (antibody, mouse IgG2a, V domains shown, Mouse IgG2a, kappa, from hybridoma; also called m342-12H8.3; m12H8) VH: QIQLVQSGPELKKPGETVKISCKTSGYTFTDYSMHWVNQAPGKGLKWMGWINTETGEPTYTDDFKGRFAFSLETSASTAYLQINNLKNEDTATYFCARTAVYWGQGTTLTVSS VL: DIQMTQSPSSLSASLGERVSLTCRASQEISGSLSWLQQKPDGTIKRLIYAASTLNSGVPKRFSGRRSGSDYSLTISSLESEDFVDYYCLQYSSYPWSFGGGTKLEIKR	MFI	6650

Lab note: next binder to report on.
Q: Looking for the measured MFI of murine monoclonal antibody 4D2 (antibody, mouse IgG1, V domains shown, Mouse IgG1, kappa, from hybridoma; also called m338-4D2.20) VH: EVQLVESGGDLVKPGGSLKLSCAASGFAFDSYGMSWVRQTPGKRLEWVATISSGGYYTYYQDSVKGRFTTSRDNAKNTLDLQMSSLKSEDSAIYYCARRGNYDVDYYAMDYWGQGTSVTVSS VL: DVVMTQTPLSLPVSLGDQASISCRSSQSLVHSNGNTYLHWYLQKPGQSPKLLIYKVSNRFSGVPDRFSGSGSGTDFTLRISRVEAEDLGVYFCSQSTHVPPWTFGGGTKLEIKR , can you help?
Result: 1740

All figures here come from patent US20110165161A1.
